Test system: IFNα-stimulated STAT-dependent luciferase reporter in Kit225 T cells
Assay: Kit225 T cell assay, IFNα stimulated STAT-dependent luciferase reporter
Assay type: cell-based, human
Conditions: Kit225 T cells, 200 U/mL human recombinant IFNα, 5-6 hours, luciferase; read-out: IFNα (Kit225 T Cell Inhibition Data)
pIC50: −log10 of the molar value.
Rule: 1 (yes) for pIC50 not less than 6, 0 (no) for anything less.

- compound: "CNC(=O)c1cnc(Nc2ccc(F)cn2)cc1Nc1ccc(CCO)cc1 [Example 191]"
  label: "0 (no)"
- compound: "CNC(=O)c1cnc(Nc2ccc(F)cn2)cc1Nc1ccccc1-c1nnc[nH]1 [Example 186]"
  label: "0 (no)"
- compound: "CNC(=O)c1cnc(Nc2cc(C(N)=O)ccn2)cc1Nc1ccc(Cl)cc1OC [Example 97]"
  label: "0 (no)"
- compound: "CNC(=O)c1cnc(Nc2ccc(N3CCOCC3)cn2)cc1Nc1ccc(OC)cc1OC [Example 220]"
  label: "1 (yes)"
- compound: "CNC(=O)c1cnc(Nc2ccc(F)cn2)cc1Nc1ccccc1NS(C)(=O)=O [Example 279]"
  label: "1 (yes)"
- compound: "CNC(=O)c1cnc(Nc2ccc(F)cn2)cc1Nc1ccccc1S(N)(=O)=O [Example 429]"
  label: "1 (yes)"
- compound: "CNC(=O)c1cnc(Nc2cccc(C)n2)cc1Nc1ccccc1S(C)(=O)=O [Example 21]"
  label: "1 (yes)"
- compound: "CNC(=O)c1cnc(Nc2cc(C)c(F)cn2)cc1Nc1cccc(C(=O)NCC2CC2)c1OC [Example 324]"
  label: "1 (yes)"
- compound: "CNC(=O)c1cnc(Nc2ccc(F)cn2)cc1Nc1ccc(C(=O)N2CCCCC2)cc1OC [Example 239]"
  label: "1 (yes)"
- compound: "CNC(=O)c1cnc(Nc2cc(C(=O)N(C)C)ccn2)cc1Nc1ccc(F)cc1OC [Example 272]"
  label: "1 (yes)"
- compound: "CNC(=O)c1cnc(Nc2cc(C(F)(F)F)ccn2)cc1Nc1ccccc1C(N)=O [Example 91]"
  label: "1 (yes)"
- compound: "CNC(=O)c1cnc(Nc2cc(C)nc(C)n2)cc1Nc1ccccc1S(C)(=O)=O [Example 300]"
  label: "1 (yes)"
- compound: "CNC(=O)c1cnc(Nc2cc(C)c(F)cn2)cc1Nc1cccc(-c2nnc(C)o2)c1OC [Example 359]"
  label: "1 (yes)"
- compound: "CNC(=O)c1cnc(Nc2ccc(Cl)cn2)cc1Nc1ccc(F)cc1OC [Example 158]"
  label: "0 (no)"
- compound: "CNC(=O)c1ccc(Nc2cc(Nc3ccc(F)cn3)ncc2C(=O)NC)cc1 [Example 243]"
  label: "0 (no)"
- compound: "CNC(=O)c1cnc(Nc2ccc3ccccc3n2)cc1NC1CCCC1(C)F (stereo not shown) [Example 284]"
  label: "0 (no)"
- compound: "CNC(=O)c1cnc(Nc2ccc(F)cn2)cc1Nc1ccccc1OC [Example 190]"
  label: "1 (yes)"
- compound: "CCN(CC)C(=O)c1ccc(Nc2cc(Nc3ccc(F)cn3)ncc2C(=O)NC)c(OC)c1 [Example 240]"
  label: "1 (yes)"
- compound: "CNC(=O)c1cnc(Nc2cc(C)nc(C)n2)cc1Nc1cccc(-c2ncn(C)n2)c1OC [Example 372]"
  label: "1 (yes)"
- compound: "CNC(=O)c1cnc(Nc2ccc(F)cn2)cc1Nc1ccccc1SC [Example 65]"
  label: "1 (yes)"
- compound: "CNC(=O)c1cnc(Nc2cc(C#N)ccn2)cc1Nc1ccccc1S(C)(=O)=O [Example 30]"
  label: "1 (yes)"
- compound: "CNC(=O)c1cnc(Nc2ccc(N3CCCCC3=O)cn2)cc1Nc1ccc(Cl)cc1OC [Example 103]"
  label: "1 (yes)"
- compound: "CNC(=O)c1cnc(Nc2ccc(F)cn2)cc1Nc1ccc(F)cc1SC [Example 207]"
  label: "0 (no)"
- compound: "CNC(=O)c1cnc(Nc2cc(C)c(F)cn2)cc1Nc1cccc(C(=O)NCC2CCC2)c1OC [Example 332]"
  label: "1 (yes)"
- compound: "CNC(=O)c1cnc(Nc2cc(C)cc(C)n2)cc1Nc1ccccc1S(C)(=O)=O [Example 443]"
  label: "1 (yes)"
- compound: "CNC(=O)c1cnc(Nc2ccccn2)cc1Nc1cc(F)ccc1S(C)(=O)=O [Example 53]"
  label: "1 (yes)"
- compound: "CNC(=O)c1cnc(Nc2cc(C)n(C)n2)cc1Nc1cccc(-c2nnc[nH]2)c1OC [Example 363]"
  label: "1 (yes)"
